- Test system: U251 CNS
- Test: NCI-60 one-dose screen, 48 h (100 = growth as untreated, 0 = no growth, -100 = all killed)
- Condition: 10 µM unless noted
About 83,000 compounds went through this panel and 20% of them were active in at least one assay; those are over-represented in the sample as a whole.
I'd appreciate it if you could label each record using growth and these ranges: low range (below 10%), mid range (10% to below 90%), high range (90% or more)

## Task Band for "CCCCCCCCCCCCNC(=O)N[C@H](C(=O)N[C@H]1/C=C/CCNC(=O)/C=C/[C@H](C)NC1=O)C(C)C" ?
## Result low range

## Task Band for "CC(C)N(C(=S)SSC(=S)N(C(C)C)C(C)C)C(C)C" ?
## Result high range

## Task Band for "CC(C)(c1ccccc1)c1cc(O)c(C(C)(C)c2ccccc2)cc1O" ?
## Result mid range

## Task Band for "O=C(/C=C/c1ccco1)c1ccccc1O" ?
## Result high range

## Task Band for "COc1ccc(-n2c(COc3ccc(F)cc3)n[nH]c2=S)cc1" ?
## Result high range

## Task Band for "CCCCCCCCCCCC1=NC(C)(C)CN1CCO" ?
## Result mid range

## Task Band for "CCS(=O)(=O)Nc1cccc(Nc2c3cccc(C)c3nc3c(C)cccc23)c1OC" ?
## Result low range

## Task Band for "COc1cc(-c2nc(-c3ccc(-c4nc5ccc(F)cc5[nH]4)cc3)no2)cc(OC)c1OC" ?
## Result mid range

## Task Band for "CCCCCCCCCCCCCC1=NC(C)(C)CN1C(C)C" ?
## Result low range

## Task Band for "CS(=O)(=O)c1ccc(C(=O)N/N=C/c2ccccc2O)cc1" ?
## Result mid range

## Task Band for "CNCCCn1c2c(c3ccc(Cl)cc3c1=O)C(=O)c1cc(OC)cnc1-2" ?
## Result low range

## Task Band for "O=C(Nc1cccc(Cl)c1)Nc1ccccc1Cl" ?
## Result mid range

## Task Band for "O=C(/C=C/c1ccccc1)c1c[nH]c2ccccc2c1=O" ?
## Result mid range

## Task Band for "CC(=O)c1ccc(N2C(=O)c3ccc(Oc4ccccc4)cc3C2=O)cc1" ?
## Result high range

## Task Band for "CN(C)N1C(=O)c2c(Cl)c(Cl)c(Cl)c(Cl)c2C1=O" ?
## Result high range

## Task Band for "CN(C)c1nc(-c2cccs2)n2nc(-c3ccc(Cl)cc3)cc2n1" ?
## Result low range

## Task Band for "O=C1c2cccc3cccc(c23)C(=O)N1CCCCCCCCCCN1C(=O)c2cccc3cccc(c23)C1=O" ?
## Result high range

## Task Band for "O=c1oc2ccccc2cc1-c1cc(-c2ccc(-c3cc(-c4cc5ccccc5oc4=O)nc(-c4cc5ccccc5oc4=O)c3)cc2)cc(-c2cc3ccccc3oc2=O)n1" ?
## Result high range

## Task Band for "Nc1nc(N)c2cc(NCc3ccc(Cl)c(Cl)c3)ccc2n1" ?
## Result low range

## Task Band for CCOC(=O)C(Cc1ccccc1)n1c(O)c(/C=N/c2ncc(Cc3ccc(Cl)cc3Cl)s2)sc1=S (stereo unspecified) ?
## Result low range

## Task Band for "CCOC(=O)Nc1ccc2nc(Sc3ccc(Cl)cc3)sc2c1" ?
## Result mid range

## Task Band for "CN1C2CCC1/C(=C\c1ccc(Cl)cc1)C(=O)/C2=C/c1ccc(Cl)cc1" ?
## Result mid range

## Task Band for "Cc1cc(C#Cc2ccc(C(C)(C)C)cc2)ccc1-n1c(/C=C/c2c(Cl)cccc2Cl)nc2ccccc2c1=O" ?
## Result high range

## Task Band for "NC(N)=N/N=C/c1cccc(Cl)c1Cl" ?
## Result mid range

###

- System: SR leukemia
- Test: NCI-60 one-dose screen, 48 h (100 = growth as untreated, 0 = no growth, -100 = all killed)
- Condition: 10 µM unless noted
- Protocol: Growth inhibition of the SR human tumor cell line is measured as a screen for anti-cancer activity. Cells are grown in 96 well plates and exposed to the test compound for 48 hours. Compounds are tested at a single concentration, which is 10^-5 M for most compounds. The reported endpoint is percent growth (GI% or GIPRCNT), where numbers from 0 - 100% represent growth inhibition, and numbers from -100% - 0 represent cell death. For example, a value of 40 represents 60% growth inhibition. […]
The panel holds about 83,000 compounds, 20% with a hit somewhere; the sample as a whole holds those more often.
Quantity: growth (%)
Give the value, in units of %, as a plain number.

## Task So what's the measured growth for this one? "CCN(CC)c1ccc(/C=N/N=C(N)N)cc1"
## Result 27.6

## Task So what's the measured growth for this one? "Cc1cccc(/C=N/n2c(-c3ccc(Cl)cc3)nc3c(Br)cc(Br)cc3c2=O)c1"
## Result 73.1

## Task So what's the measured growth for this one? "CCN(CC)c1cc(C)c(Cc2c(OC)ccc3ccccc23)cc1C"
## Result 85.5

## Task So what's the measured growth for this one? "COC(=O)CSc1ccc(Cl)cc1"
## Result 78

## Task So what's the measured growth for this one? Oc1c(C(Nc2cccc3ccccc23)c2ccccc2)ccc2cccnc12 (stereo unspecified)
## Result 3.7

## Task So what's the measured growth for this one? "O=C(Nc1ccc(Br)cc1)Nc1cccc(Br)c1"
## Result 38

###

- Test system: CCRF-CEM leukemia
- Test: NCI-60 one-dose screen, 48 h (100 = growth as untreated, 0 = no growth, -100 = all killed)
- Condition: 10 µM unless noted
The panel holds about 83,000 compounds, 20% with a hit somewhere; the sample as a whole holds those more often.
# if value of growth reaches 30%, tag MET; if it stays below, tag NOT MET

## Task Is growth at least 30%? Consider "O=C(c1ccccc1)c1cccc(C(Br)Br)c1"
## Result MET

## Task Is growth at least 30%? Consider "CN(C)c1ccc(C2(Cl)c3ccccc3N(C)c3ccccc32)cc1"
## Result NOT MET

## Task Is growth at least 30%? Consider "CCCCn1cnc2c(SCc3ccc([N+](=O)[O-])cc3)nc(N)nc21"
## Result MET

## Task Is growth at least 30%? Consider "Cc1ccc(C(=O)CC(=O)C(F)(F)C(F)(F)C(F)(F)F)s1"
## Result MET

## Task Is growth at least 30%? Consider "Cn1cnc([N+](=O)[O-])c1S(=O)(=O)Oc1ccccc1"
## Result NOT MET

## Task Is growth at least 30%? Consider CCN(CC)CCCC(C)Nc1ccnc2ccc(Oc3ccccc3)cc12 (stereo not given)
## Result MET

## Task Is growth at least 30%? Consider "CC(C)(C)c1ccc(C(=O)Nc2sc3cc(O)ccc3c2C(N)=O)cc1"
## Result MET

## Task Is growth at least 30%? Consider "COc1ccc(NC(=O)c2sc3c(=O)[nH]c(C(F)(F)F)nc3c2C)cc1"
## Result MET

## Task Is growth at least 30%? Consider "Oc1ccc(-c2nc3ccccc3s2)cc1CN(Cc1ccccn1)Cc1ccccn1"
## Result NOT MET

###

- System: A549/ATCC NSCLC
- Test: NCI-60 one-dose screen, 48 h (100 = growth as untreated, 0 = no growth, -100 = all killed)
- Condition: 10 µM unless noted
Compounds without any hit were thinned out: in the full panel of roughly 83,000, 20% have a hit.
Quantity: growth (%)
Give the value, in units of %, as a plain number.

## Task So what's the measured growth for this one? "CCN(CC)Cc1cc(Nc2ccnc3ccc(OC)cc23)ccc1O"
## Result 22.5

## Task So what's the measured growth for this one? "CC1=C(O)C(=O)CC1"
## Result 88.8

## Task So what's the measured growth for this one? "COc1cccc(-c2nc3sccn3c2-c2ccnc(NCCN3CCCN(C)S3(=O)=O)n2)c1"
## Result 91.7

## Task So what's the measured growth for this one? "CC(=O)c1ccc(N2C(=O)c3ccc(Oc4ccccc4)cc3C2=O)cc1"
## Result 109

## Task So what's the measured growth for this one? "Nc1cc(C(=O)O)cc(C(=O)O)c1"
## Result 108

## Task So what's the measured growth for this one? "O=S1(=O)NCCCN1CCNc1nccc(-c2c(-c3cccc(O)c3)nc3sccn23)n1"
## Result 124

## Task So what's the measured growth for this one? "O=c1oc2ccccc2cc1-c1cc(-c2ccc(-c3cc(-c4cc5ccccc5oc4=O)nc(-c4cc5ccccc5oc4=O)c3)cc2)cc(-c2cc3ccccc3oc2=O)n1"
## Result 101

## Task So what's the measured growth for this one? "N/N=C(\C(=N\N)c1ccccc1)c1ccccc1"
## Result 101

## Task So what's the measured growth for this one? "Clc1ccc(-c2nc(-c3cccs3)no2)cc1"
## Result 94.8

## Task So what's the measured growth for this one? "O=C(NO)c1ccc(CNc2cccc3nc(C4CC4)n(-c4ccccc4)c(=O)c23)cc1"
## Result 15.3

## Task So what's the measured growth for this one? "O=C(Nc1cccc(Cl)c1)Nc1ccccc1Cl"
## Result 80.8
